In this section we review reported pIC50 values for a set of sequences.
target-system: HLA-A*02:02
method-description: IEDB peptide-MHC binding, cellular MHC/competitive/fluorescence; bounds were set here for any values at or beyond the usual limits of such assays
test-context: source organism: Mammarenavirus guanaritoense
pIC50: −log10 of the molar value.

ordered-residues	relation-sign	pIC50
YCLDFLFDV	=	4.76
KNAGYLVGR	=	4.34
YVIGLLPQS	≤	4.15
CNYTRFWYI	=	5.00

====

target-system: HLA-A*02:03
method-description: IEDB peptide-MHC binding, purified MHC/competitive/radioactivity; bounds were set here for any values at or beyond the usual limits of such assays
test-context: source organism: Vaccinia virus WR
pIC50: −log10 of the molar value.

ordered-residues	pIC50
TLFIDRGSI	6.10
LVAEHRFENM	6.34
SIYIAVANCV	7.20
ATFRDMLLNV	9.40
TLPELNLSL	7.64
KQYDSTDFKM	5.48
VTLFIDRGSI	5.65
SQAKKPEVRI	5.63
DVLPFDIKYI	6.73
VLTSVDIETA	6.38
RLRYNLCKYL	9.52
